# Days of survival listing for each entry below
Test system: VCR resistant murine leukemia (P388/VCR) cells
Test: In vivo effect of overcoming resistance with etoposide (VP-16) in P388/VCR bearing mice (intravenous)
Set-up: species or system CDF1 male mice
Conditions: VP-16 (3 mg/kg) + compound (40 mg/kg), i.v., five days
Where a name gives a salt, the structure may show the parent alone.
Respond numerically; units are days and should not be typed.

Example entries and their recorded answers appear below.
{"COMPOUND": "CN1CCCC(C(=O)NN=Cc2c(-c3ccc(-c4ccccc4)cc3)nc3sc4c(n23)CCCC4)C1 (centres unmarked) [Compound 11, hydrochloride]", "UNITS": "days", "Days of survival": 13.0}
{"COMPOUND": "CCCN1CCCC(C(=O)NN=Cc2c(-c3ccccc3)nc3sc4c(n23)CCCC4)C1 (centres unmarked) [Compound 12, hydrochloride]", "UNITS": "days", "Days of survival": 13.2}
{"COMPOUND": "CN1CCCC(C(=O)NN=Cc2c(-c3ccccc3)nc3sc4c(n23)CCCC4)C1 (centres unmarked) [Compound 5]", "UNITS": "days", "Days of survival": 14.0}

Days of survival for CCCN1CCCC(C(=O)NN=Cc2c(-c3ccccc3)nc3sc4ccccc4n23)C1 (centres unmarked) [Compound 16, hydrochloride] is 12.7

For reference, reported Days of survival for CN1CCCC(C(=O)NN=Cc2c(-c3ccccc3)nc3sc4ccccc4n23)C1 (centres unmarked) [Compound 15, hydrochloride] stands at 13.0
